test: Toxicity liver stage against HepG2, at 10uM; type: cell-based; set-up: test concentration 10 uM, cell line HepG2-A16-CD81EGFP; conditions: human, HepG2-A16-CD81EGFP cells; read-out: INHIBITION
parameter: cytotoxicity at 10 µM (%)
Report as a plain number; the unit % is understood.

Consider the worked cases shown below.
O=C(Cc1ccc(F)cc1)N1CCN(CC(O)C2CC2)CC1 (configuration not stated): -15.2
COc1ccccc1C(=O)Nc1c(F)c(C(=O)N2CCCC2)nn1C: 5.83
CCN1CCC2(CC1)CC(COC)N(Cc1csc(C)n1)C2 (configuration not stated): 6.68

Problem: # cytotoxicity at 10 µM lookup, item CN(CC(=O)N1CCCC1Cn1cccn1)C1CC1 (configuration not stated)
Result: -9.39

Problem: # cytotoxicity at 10 µM lookup, item c1cc(CNCc2ccc(Cn3cncn3)cc2)c2c(c1)OCCO2
Result: 0.585

Problem: # cytotoxicity at 10 µM lookup, item COC(=O)c1ccc(NC(=O)CNCc2ccco2)cc1
Result: -12

Problem: # cytotoxicity at 10 µM lookup, item O=C(c1nnn(-c2ccc(C(F)(F)F)cc2)n1)N1CCC(O)CC1
Result: -4.52

Problem: # cytotoxicity at 10 µM lookup, item O=S(=O)(Cc1c(F)cccc1Cl)NCCCN1CCCCCC1
Result: -10

Problem: # cytotoxicity at 10 µM lookup, item COc1ccc(CN2CC[C@H]3[C@H](CO[C@H]3CNC(=O)N(C)C)C2)cc1
Result: 6.96

Problem: # cytotoxicity at 10 µM lookup, item COc1ccc(CNC(=O)NC(C)(C(=O)O)c2ccco2)cc1F (configuration not stated)
Result: 0.808

Problem: # cytotoxicity at 10 µM lookup, item OCC1(Cc2ccc(F)cc2F)CCCN(Cc2ccncc2)C1 (configuration not stated)
Result: -3.44

Problem: # cytotoxicity at 10 µM lookup, item CCN1CC(CN(C)c2cc(C)nc(N)n2)Oc2ccccc21 (configuration not stated)
Result: 38.8
